Data origin, for the record: the nanobody polyreactivity screen of Harvey et al. (2022)

# ASSAY METHOD TEXT: yeast display, Sf9 membrane polyspecificity reagent, FACS + sequencing; frameworks hold sequencing errors
REPORTED ENDPOINT: polyreactivity (PSR sort gate)

# example entries with known answers
| ENTRY SEQUENCE | polyreactivity (PSR sort gate) |
| --- | --- |
| QVQLVESGGGLVQAGGSLRLSCAASGRTFQKNTMGWYRQAPGKERELVAAIDYSATTTYYADSVKGRFTISRDNAKNTVYLQMNSLKTEDTAVYYCAARWSYPRWEFDYWGQGTQVTVSS | high polyreactivity |
| QVQLVESGGGLVQAGGSLRLSCAASGSTFYRYAMGWYRQAPGKERELVAAISQSGGRTYYADSVKGRFTISRDYAKNTVYLQMNSLKPEDTAVYYCAASWYYSLQRYGYWGQGTQVTVST | high polyreactivity |
| QVQLVESGGGLVQAGGSLRLSCAASGFIFGYNAMGWSRQAPGKERELVAAITWSGGSTYYADSVKGRFTISRDIAKNTVYLQMNSLKPEDTAVYYCNWPGEGDYWGQGTQVTVSS | low polyreactivity |
| QVQLVESGGGLVQAGGSLRLSCAASGLIFPFYTMGWYRQAPGKERELVAAISYSGGSTYYADSVKGRFAISRDNAKNTVYLQMNSLKPEDTAVYYCAKSYRTTYHFWSGYDYWGQGTQVTVSS | low polyreactivity |
| QDQLEESGGGLVQAGGSLRLSSADSGRIFYSYAMGWYRQAPGKERELVAAINSGDRTNYADSVKGRFTISRDNAKNTVYLQMNSLKPEDTAVYYCATRWFAFPWDEYNYWGQGTQGTVSS | low polyreactivity |

Report polyreactivity (PSR sort gate) for QVQLVESGGGLVQAGGSLRLSCAASGLTFYYYAMGWYRQAPGKEREFVAAISYRGGRTYYADSVKGRFTISRDNAKNTVYLQMNSLKPEDTAVYYCAKLGKSRWWGVGPLEMDSWGQGTQVTVSS
high polyreactivity

Report polyreactivity (PSR sort gate) for QVQLVESGGGLVQAGGSLRLSCAASGRIFRINAMGWYRQAPGKERELVASISRRGGNTYYADSVKGRFTISRDNAKNTVYLQMNSLKPEDTAVYYCAADTYQERTFDYWGQGTQVTVSS
low polyreactivity

Report polyreactivity (PSR sort gate) for QVQLVESGGGLVQAGGSLRLSCAASGRTFEHYGMGWYRQAPGKEREFVADISRIGGSTYADSVKGRFTISRDNAKNTVYLQKNSLKPEDSAVYYCNKARYQLGSGYNYWGQGTQVTVSS
low polyreactivity

Report polyreactivity (PSR sort gate) for QVQHVESRGGLVQAGGSLRLSCAASGIILSPYAMGWYRQAPGKERELVAAISRSGGSTYYADSVKGRFTISRDNAKNTVYLQMNSLKPEDTAVYYCAARYHVYSNYYKYDYCGQGTQVTVSS
high polyreactivity

Report polyreactivity (PSR sort gate) for QVQLVESGGGLVQAGGSLRLSCAASGSIFAVYAMGWYRQAPGKERELVAASSTDYADSVKGRFTISRDYAKNTVYLQMNSLKPEDTAVYYCANVGFGIPGGFYYWGQGTKVTVSS
low polyreactivity

---

# ASSAY METHOD TEXT: yeast display, Sf9 membrane polyspecificity reagent, FACS + sequencing; frameworks hold sequencing errors
REPORTED ENDPOINT: polyreactivity (PSR sort gate)

# example entries with known answers
| ENTRY SEQUENCE | polyreactivity (PSR sort gate) |
| --- | --- |
| QVQLVESGGGLVQAGGSLRLSCAASGFIFGKYAMGWYRQAPRKERELGAAISKSGGSTYYADSVKGRFTISRDNAKNTVYLQMNSLKPEDTAVYYCAARSLGHYGSWGQGTQVTVSS | high polyreactivity |
| QVQLQESGGGRMQAGGSQRLSCAASGSISYYSDMGWYRQAPGKEREFVAGIGYGTTTNYADSVKGRFTTSRDNAKNTVYLQMISMKPEDTAVYYCAAYQGNGYEFYYWGQGTQVTVRS | low polyreactivity |
| QVQLVESGGGLVQAGGSLRLSCAASVLIFDGYAMGWYRQAPGKEREFVADIDFGGGSTYYADSVKGRFTISRDNAKNTVYLQMNSLKPEDTAVYYCNAVWDDYGFYSPYVVVEYDYWGQGTQVTVSS | high polyreactivity |
| QVQLVESGGGLDQAGGSLRLSCAASGSTFVYYAMGWYRQAPGKERELVAAITASGGGTYYADSVKGSFTISRDNAKNTVYLQMNSLKPEDTAVYYCAANDYWYSRGDNQFYYRGQGTQVTVSS | low polyreactivity |

// next entry
Report polyreactivity (PSR sort gate) for QVHLEESGGGIVQAGGSLRLSCAASGSNFGYNAMGWYRQAPGKEREFVARISSRDDRTSYADSVKGRFTISRDNAKNTVYLQMNSLKPEDTAVYYFAAVRFFLTRAWRPLNYWGQGTIVTVSS
high polyreactivity

---

# ASSAY METHOD TEXT: yeast display, Sf9 membrane polyspecificity reagent, FACS + sequencing; frameworks hold sequencing errors
REPORTED ENDPOINT: polyreactivity (PSR sort gate)

| ENTRY SEQUENCE | REPORTED ENDPOINT | VALUE MEASURED |
| --- | --- | --- |
| QVQLVESGGGLVQAGGSLRLSCAASGIIFALNAMGWYRQAPGKERELVATIDSTSGSTYYADSVKGRFTISRDNAKNTVYLQMNSLKPEDTAVYYCAVVHAQSAPMDYWGQGTQVTVSS | polyreactivity (PSR sort gate) | low polyreactivity |
| QVQLVESGGGLVQAGGSLRLSCAASGITIFGYAMGWYRQAPRTERELVAAINYSGDSTYYADSVKGRFTISRDNAKNTVYLQMNSLKPEDTAVYYCAADVRPYYSAYRGRYYYWGQGTQVTVSS | polyreactivity (PSR sort gate) | high polyreactivity |
| QVQLVESGGGLVQAGGSLRLSCHASGSTFTFNAMGWYRQAPGKERELVADITSGGRTNYADSVKGRFTISRDNAKNTVYLQMNSLKPEDTAVYYCAARWSAHEYPGYDSWGQGTQVTVSS | polyreactivity (PSR sort gate) | low polyreactivity |
| QVHLVESGGGLVQAGGSLRLSCAASGRTFIRYTMGWYRQAPGKEREFVAAINTSGGRTYYADSVKGRFTISRDNAKNTVYLQMNSLKPEDTAVYYCAAGYSASRKVDYWGQGTQVTVSS | polyreactivity (PSR sort gate) | high polyreactivity |

// next entry
Report polyreactivity (PSR sort gate) for QVQLVDSGGGLVQAGGSLRVSCAASGSILPLNAMGWYRQGPGKERELVADISWSGGDTYYADSVKGRFTISRDNAKNTVYLQMNSLKPEDTSVYYCAADLHTELYKMDYWGQGTQVTVSS
low polyreactivity

---

# ASSAY METHOD TEXT: yeast display, Sf9 membrane polyspecificity reagent, FACS + sequencing; frameworks hold sequencing errors
REPORTED ENDPOINT: polyreactivity (PSR sort gate)

| ENTRY SEQUENCE | REPORTED ENDPOINT | VALUE MEASURED |
| --- | --- | --- |
| QVQLVESGGRLVQAGGSLRLSCHASGIIFTAYAMGWYRPAPGKERELVAAITWSGGSTYYADSVKGRFTISRDNAKNTVYLQMNSLKPEDTAVYYCNGERPSFPFNYWGQGTQVTVSS | polyreactivity (PSR sort gate) | low polyreactivity |
| QVQLVESAGGLVQAGASLRLSCAASGGTSPVYAMGWYRQAPGKERELVAAIRYSGGRTNYADSVKGRFTISRDNAKNTVYLQMNSLKPEDTAVYYCAARGYRYQGDYWGQGTQVTVSS | polyreactivity (PSR sort gate) | high polyreactivity |
| QVQLVESGGGLVQAGGSLRLSCAASGRIFSYNAMGWYRQAPGKERDLVASISGGGSTYADSVKGRFTISRDNAKNTVYLQMNRLKPADTAVYYCNAVHFSYEYDYWGQGTQVTVSS | polyreactivity (PSR sort gate) | high polyreactivity |
| QVQLVESGGGLVQAGGSLRLSCASSGRTISSYAMGWYRQPPGKERELVAGISWRGGRTYYADSVKGRFTISRDNAKITVYLQMNSLKPEDTAVSYCAADRVRGGYRTYYWVVHLDYWGQGTQVTVSS | polyreactivity (PSR sort gate) | high polyreactivity |
| QVQLVESGGGLVQAGGSLRLSCAASGYTFDPNAMGWYRQAPGKERELVAAISRIGGSTYYADSVKGRFTISRDNAKNTVYLQMKSLKPEDTAVYYCAVDWYLTGHWADDYWGQGTQVTVSS | polyreactivity (PSR sort gate) | low polyreactivity |
| QVQLVESGGGLVQAGGSLRLSCAASGSIFPYNVMGWYRQAPGKERELVAAISTRGGRTYYADSVKGRVTISRDNAKNTVYLQMNSLKPEDTAVYDCATAGGPYSASGYYGGQGTQVTVSS | polyreactivity (PSR sort gate) | high polyreactivity |

Report polyreactivity (PSR sort gate) for QVQLVESGGGLVQAGGSLRLSCAASGFTFAVYAMGWYRQAPGKERELVAAINRGGGSTYYADSVKGRFTISRDNAKNTVYLQMNSLKPEDTAVYYCNKRYRVWFDYWGQGTQVTLSS
high polyreactivity

Report polyreactivity (PSR sort gate) for QVQLVESGGGLVQAGGSLRLSCDASGRIFDANVMGWYRQAPGKERELVAAISSGGRTKYADSVKGRFTISRDNAKNTVYLQMNSLKPEDTAVYYCNADYRNDWGTPLWYAYNYWGQGTQVTVSS
low polyreactivity

Report polyreactivity (PSR sort gate) for QVQLVESGAGLVQAGGSLRLSCADSVNTFWYYTMGWYRQAPGKERELVAAISRGGRPYYADSVKGRFTISRDNAKNTVYLQMNSLKPEDTAVYNCNKPAPYTGSFDRSGIFDYWGQGTQVTVSS
high polyreactivity

Report polyreactivity (PSR sort gate) for QVQLVESGGGLVQAGGSLRLSCAASGSTFSSNAMGWYRQAPGKEREFVAGISRSGGSTYYADSVKGRFTISRDNAKNTVYLQMNSLKPEDTAVYYCAARGGPGFKFGYWGQGTQVTVSS
high polyreactivity

Report polyreactivity (PSR sort gate) for QVQLVESGGGLVQAGGSLRLSCAASGSTFRYNAMGWYRQAPGKERELVATITSGGYTNYADSVKGRFTISRDNAKNSVYLQMNSLKPVDSAVYYCATDSLFRTYVEWDRKFDYWGQGTQVTVSS
high polyreactivity
